Test system: test strain 923 pPvra-lux
Assay: Secondary screen / synergy confirmation of Top 40, relative growth with oxacillin
Assay type: cell-based, Staphylococcus aureus
Conditions: Top 40 library, compound at maximum non-GI conc
readout: RG Ox avg
Numbers only.

Worked cases, RG Ox avg given:
# compound, RG Ox avg
data = [
    ("Oc1ccc(C2(c3cccc(Br)c3)CCCCC2)cc1 [F0020-1560]", 0.68),
    ("Cc1cc(SCC(=O)Nc2cccc(C(F)(F)F)c2)n2ncc(-c3ccccc3)c2n1 [F3305-0354]", 1.01),
]

Would you kindly look at the next entry?
QUERY: Tell us which RG Ox avg value is on record for Cc1ccc(S(=O)(=O)Nc2ccccc2C(=O)Nc2nc3c(Cl)ccc(Cl)c3s2)cc1 [F1813-0710]
RESULT: 0.69

Attribution: patent US9675592B2
